The reader will find pIC50 measurements below, all made with UniProt:P14679.
pIC50: −log10 of the molar value.
Recorded metric: pIC50

                      molecule  experimental_system  value_measured
0  Oc1ccc(O)cc1 [HYDROQUINONE]       UniProt:P14679            2.36
1             CCCCc1ccc(O)cc1O       UniProt:P14679            4.68

----------
The reader will find IC50 measurements below, all made with Tyrosinase (Homo sapiens, UniProt P14679).
Sequence (P14679 whole entry): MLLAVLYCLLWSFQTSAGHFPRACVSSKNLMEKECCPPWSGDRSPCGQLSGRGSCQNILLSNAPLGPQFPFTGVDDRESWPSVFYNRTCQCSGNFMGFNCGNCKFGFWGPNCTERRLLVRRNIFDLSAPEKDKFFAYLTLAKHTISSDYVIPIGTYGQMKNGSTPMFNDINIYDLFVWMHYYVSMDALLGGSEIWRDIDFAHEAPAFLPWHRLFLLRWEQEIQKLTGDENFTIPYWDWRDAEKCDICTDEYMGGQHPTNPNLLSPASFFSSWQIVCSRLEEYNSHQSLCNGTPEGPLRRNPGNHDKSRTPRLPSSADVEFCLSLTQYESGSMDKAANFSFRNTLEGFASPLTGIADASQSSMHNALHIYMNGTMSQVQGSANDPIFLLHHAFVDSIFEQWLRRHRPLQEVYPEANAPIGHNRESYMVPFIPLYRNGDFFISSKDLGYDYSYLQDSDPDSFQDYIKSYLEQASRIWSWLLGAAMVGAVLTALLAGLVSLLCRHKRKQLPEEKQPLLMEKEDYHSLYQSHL
Recorded metric: IC50 (µM)

>>> df
                          record_smiles                       experimental_system  units_of_measure  value_measured
0       Oc1cc(O)cc(-c2cc3ccc(O)cc3o2)c1  Tyrosinase (Homo sapiens, UniProt P14679)                µM               8
1  CN(C)c1ccc(/C=C/C(=N\O)c2ccccc2O)cc1  Tyrosinase (Homo sapiens, UniProt P14679)                µM            7.89
